Where these numbers come from: patent US12139492B2

Some compounds, each annotated with its measured Dmax.
Molecular target: BTK (Homo sapiens)
Test: Degradation of BTK protein in Namalwa cells (Western blot; DC50, Dmax)
Conditions: read-out: Dmax (BTK degradation)

Below, 5 compounds whose answers are already recorded.
Nc1ncnc2c1c(-c1ccc(Oc3ccccc3)cc1)nn2C1CCN(CCN2CCC(CN3CCN(c4ccc5c(c4)C(=O)N(C4CCC(=O)NC4=O)C5=O)CC3)C2)CC1 (stereo not shown) [Compound 455]	> 90%
NC(=O)c1c(-c2ccc(Oc3ccccc3)cc2)nn2c1NCC[C@H]2C1CCN(C2CCN(C(=O)N3CCC(CC4CCN(c5ccc6c(c5)C(=O)N(C5CCC(=O)NC5=O)C6=O)CC4)CC3)CC2)CC1 (stereo partly shown) [Compound 393]	> 75%
NC(=O)c1c(-c2ccc(Oc3ccccc3)cc2)nn2c1NCC[C@H]2C1CCN(CC2CCN(C(=O)N3CCC(CN4CCN(c5ccc6c(c5)C(=O)N(C5CCC(=O)NC5=O)C6=O)CC4)CC3)CC2)CC1 (stereo partly shown) [Compound 409]	> 90%
Nc1ncnc2c1c(-c1ccc(Oc3ccccc3)cc1)nn2C1CCC(C(=O)N2CC(C3CCN(c4ccc5c(c4)C(=O)N(C4CCC(=O)NC4=O)C5=O)CC3)C2)CC1 (stereo not shown) [Compound 513]	> 90%
Nc1ncnc2c1c(-c1ccc(Oc3ccccc3)cc1)nn2C1CCC(C(=O)NCCN2CCN(c3ccc4c(c3)CN(C3CCC(=O)NC3=O)C4=O)CC2)CC1 (stereo not shown) [Compound 523]	> 90%

### Prompt // lookup Dmax | system=BTK (Homo sapiens) | key= Nc1ncnc2c1c(-c1ccc(Oc3ccccc3)cc1)nn2C1CCN(CCN2CCC(CN3CCC(c4ccc(N5CCC(=O)NC5=O)cc4)CC3)CC2)CC1 [Compound 553]
### Response > 90%

### Prompt Try Nc1ncnc2c1c(-c1ccc(Oc3ccccc3)cc1)nn2C1CCN(C(=O)N2CC(N3CCN(c4ccc5c(c4)CN([C@@H]4CCC(=O)NC4=O)C5=O)CC3)C2)CC1 [Compound 486] next.
### Response > 90%

### Prompt Try Nc1ncnc2c1c(-c1ccc(Oc3ccccc3)cc1)nn2C1CCN(CCN2CCC(Sc3ccc4c(c3)CN(C3CCC(=O)NC3=O)C4=O)CC2)CC1 (stereo not shown) [Compound 472] next.
### Response > 75%

### Prompt Try Nc1ncnc2c1c(-c1ccc(Oc3ccccc3)cc1)nn2C1CCN(CCN2CCC(CSc3ccc4c(c3)C(=O)N(C3CCC(=O)NC3=O)C4=O)CC2)CC1 (stereo not shown) [Compound 469] next.
### Response > 90%

### Prompt Try NC1=NC=NC2C1C(c1ccc(Oc3ccccc3)cc1)=NN2[C@@H]1CCCN(C(=O)N2CCN(C3CN(c4ccc5c(c4)C(=O)N(C4CCC(=O)NC4=O)C5=O)C3)CC2)C1 (stereo partly shown) [Compound 505] next.
### Response > 75%

* * *

Biological target: UniProt Q06187
Test: Degradation of BTK protein in Namalwa cells (Western blot; DC50, Dmax)
Details: read-out: DC50 (BTK degradation); concentration giving 50% reduction of BTK expression level; cell line not given
Some molecules, each annotated with its measured DC50.

### Prompt Which DC50 value belongs to Nc1ncnc2c1c(-c1ccc(Oc3ccccc3)cc1)nn2C1CCN(CCN2CCC(CN3CCN(c4ccc(N5CCC(=O)NC5=O)cc4)CC3)CC2)CC1 [Compound 554] ?
### Response < 10 nM

### Prompt Try NC(=O)c1c(-c2ccc(Oc3ccccc3)cc2)nn2c1NCC[C@H]2C1CCN(CC2CCN(C(=O)N3CCC(CN4CCN(c5ccc6c(c5)C(=O)N(C5CCC(=O)NC5=O)C6=O)CC4)CC3)CC2)CC1 (stereo partly drawn) [Compound 409] next.
### Response < 10 nM

### Prompt Try NC(=O)c1c(-c2ccc(Oc3ccccc3)cc2)nn2c1NCC[C@H]2C1CCN(CC2CCN(C(=O)N3CCC(C4CCN(c5ccc6c(c5)C(=O)N(C5CCC(=O)NC5=O)C6=O)CC4)CC3)CC2)CC1 (stereo partly drawn) [Compound 405] next.
### Response 10 to 50 nM

* * *

Target: BTK (Homo sapiens, UniProt Q06187)
Sequence (Q06187 whole entry): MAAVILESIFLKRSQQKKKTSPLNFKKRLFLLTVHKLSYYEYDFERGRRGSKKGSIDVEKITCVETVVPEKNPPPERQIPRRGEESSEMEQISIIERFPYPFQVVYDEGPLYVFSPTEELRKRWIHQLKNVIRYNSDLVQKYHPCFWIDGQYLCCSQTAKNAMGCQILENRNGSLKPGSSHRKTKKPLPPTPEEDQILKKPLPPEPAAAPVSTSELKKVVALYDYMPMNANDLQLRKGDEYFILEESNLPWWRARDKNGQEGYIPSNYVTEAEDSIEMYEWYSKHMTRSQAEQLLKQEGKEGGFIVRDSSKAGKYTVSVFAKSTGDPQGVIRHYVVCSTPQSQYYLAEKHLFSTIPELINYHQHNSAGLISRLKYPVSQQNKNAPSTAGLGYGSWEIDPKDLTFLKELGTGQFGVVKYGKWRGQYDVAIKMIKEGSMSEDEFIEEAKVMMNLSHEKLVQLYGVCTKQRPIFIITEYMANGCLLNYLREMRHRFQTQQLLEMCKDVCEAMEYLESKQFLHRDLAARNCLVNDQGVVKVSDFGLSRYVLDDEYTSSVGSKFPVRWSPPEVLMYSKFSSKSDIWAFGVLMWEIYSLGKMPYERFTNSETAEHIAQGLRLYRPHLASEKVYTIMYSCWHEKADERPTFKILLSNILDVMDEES
Test: Degradation of BTK protein in Namalwa cells (Western blot; DC50, Dmax)
Conditions: read-out: DC50 (BTK degradation); concentration giving 50% reduction of BTK expression level; cell line not given
MEASURED_QUANTITY: DC50

Below, 2 compounds whose answers are already recorded.
Nc1ncnc2c1c(-c1ccc(Oc3ccccc3)cc1)nn2C1CCN(CCN2CCC(N3CCN(c4ccc5c(c4)C(=O)N(C4CCC(=O)NC4=O)C5=O)CC3)C2)CC1 (single isomer, unassigned) [Compound 459b]	< 0.01 µM
Nc1ncnc2c1c(-c1ccc(Oc3ccccc3)cc1)nn2C1CCN(C[C@H]2CCN(CC3CCN(c4ccc5c(c4)C(=O)N(C4CCC(=O)NC4=O)C5=O)CC3)C2)CC1 (stereo partly drawn) [Compound 445a]	0.01 to 0.05 µM

Here's the next entry for you.
### Prompt Which DC50 value belongs to Nc1ncnc2c1c(-c1ccc(Oc3ccccc3)cc1)nn2C1CCN(CC2CCN(CC3CCN(CC4CN(c5ccc6c(c5)CN(C5CCC(=O)NC5=O)C6=O)C4)CC3)CC2)CC1 (stereo not drawn) [Compound 432] ?
### Response 0.01 to 0.05 µM

* * *

Some compounds, each annotated with its measured DC50.
Target: BTK (Homo sapiens, UniProt Q06187)
Experiment: Degradation of BTK protein in Namalwa cells (Western blot; DC50, Dmax)
Details: BTK degradation; cell line not given

NC(=O)c1c(-c2ccc(Oc3ccccc3)cc2)nn2c1NCC[C@H]2C1CCN(CC2CCN(CCN3CCN(c4ccc5c(c4)CN(C4CCC(=O)NC4=O)C5=O)CC3)CC2)CC1 (stereo partly shown)	> 50 nM
NC(=O)c1c(-c2ccc(Oc3ccccc3)cc2)nn2c1NCCC2C1CCN(C2CCN(C(=O)N3CCC(N4CCN(c5ccc6c(c5)CN(C5CCC(=O)NC5=O)C6=O)CC4)CC3)CC2)CC1 (stereo not shown)	< 10 nM
NC(=O)c1c(-c2ccc(Oc3ccccc3)cc2)nn2c1NCC[C@H]2C1CCN(CC2CCN(CC3CCN(c4ccc5c(c4)CN(C4CCC(=O)NC4=O)C5=O)CC3)CC2)CC1 (stereo partly shown)	10 to 50 nM

### Prompt Which DC50 value belongs to NC(=O)c1c(-c2ccc(Oc3ccccc3)cc2)nn2c1NCCC2C1CCN(CC2CCN(C(=O)N3CCC(C4CCN(c5ccc6c(c5)C(=O)N(C5CCC(=O)NC5=O)C6=O)CC4)CC3)CC2)CC1 (stereo not shown) ?
### Response 10 to 50 nM

### Prompt Try Nc1ncnc2c1c(-c1ccc(Oc3ccccc3)cc1)nn2C1CCN(C2CCN(C(=O)N3CCN(CCN4CCC(c5ccc6c(c5)CN(C5CCC(=O)NC5=O)C6=O)CC4)CC3)CC2)CC1 (stereo not shown) next.
### Response 10 to 50 nM

### Prompt Try NC(=O)c1c(-c2ccc(Oc3ccccc3)cc2)nn2c1NCC[C@H]2C1CCN(C2CCN(CC3CCN(c4ccc5c(c4)CN(C4CCC(=O)NC4=O)C5=O)CC3)CC2)CC1 (stereo partly shown) next.
### Response 10 to 50 nM

### Prompt Try NC(=O)c1c(-c2ccc(Oc3ccccc3)cc2)nn2c1NCCC2C1CCN(CC2CCN(C(=O)N3CCC(N4CCC(c5ccc6c(c5)CN(C5CCC(=O)NC5=O)C6=O)CC4)CC3)CC2)CC1 (stereo not shown) next.
### Response < 10 nM

### Prompt Try NC(=O)c1c(-c2ccc(Oc3ccccc3)cc2)nn2c1NCC[C@H]2C1CCN(C(=O)N2CCC(CCN3CCC(c4ccc5c(c4)C(=O)N(C4CCC(=O)NC4=O)C5=O)CC3)CC2)CC1 (stereo partly shown) next.
### Response 10 to 50 nM

### Prompt Try Nc1ncnc2c1c(-c1ccc(Oc3ccccc3)cc1)nn2C1CCN(C2CCN(C(=O)N3CCN(CCCN4CCN(c5ccc6c(c5)CN(C5CCC(=O)NC5=O)C6=O)CC4)CC3)CC2)CC1 (stereo not shown) next.
### Response 10 to 50 nM

### Prompt Try Nc1ncnc2c1c(-c1ccc(Oc3ccccc3)cc1)nn2C1CCN(C2CCN(C(=O)N3CCN(CCN4CCC(c5ccc6c(c5)C(=O)N(C5CCC(=O)NC5=O)C6=O)CC4)CC3)CC2)CC1 (stereo not shown) next.
### Response 10 to 50 nM

* * *

Molecular target: BTK (Homo sapiens)
Assay: Degradation of BTK protein in Namalwa cells (Western blot; DC50, Dmax)
Details: read-out: DC50 (BTK degradation); concentration giving 50% reduction of BTK expression level; cell line not given
MEASURED_QUANTITY: DC50

Below, 2 compounds whose answers are already recorded.
Nc1ncnc2c1c(-c1ccc(Oc3ccccc3)cc1)nn2C1CCN(CCCN2CCC(CN3CCN(c4ccc(N5CCC(=O)NC5=O)cc4)CC3)CC2)CC1	< 10 nM
Nc1ncnc2c1c(-c1ccc(Oc3ccccc3)cc1)nn2C1CCN([C@@H]2CCN(CC3CN(c4ccc5c(c4)C(=O)N(C4CCC(=O)NC4=O)C5=O)C3)C2)CC1 (stereo partly drawn) [Compound 425a]	10 to 50 nM

Here's the next entry for you.
### Prompt // lookup DC50 | system=BTK (Homo sapiens) | key= Nc1ncnc2c1c(-c1ccc(Oc3ccccc3)cc1)nn2C1CCN(CCCN2CCC(CC3CCN(c4ccc(NC5CCC(=O)NC5=O)cc4)CC3)CC2)CC1 (stereo not drawn)
### Response 10 to 50 nM
